Field: SpsB activity (normalized) at 50 μM. Provide a value for each of the compounds that follow.
- Target desc: UniProt:Q5HHB9
- Sequence (Q5HHB9 whole entry): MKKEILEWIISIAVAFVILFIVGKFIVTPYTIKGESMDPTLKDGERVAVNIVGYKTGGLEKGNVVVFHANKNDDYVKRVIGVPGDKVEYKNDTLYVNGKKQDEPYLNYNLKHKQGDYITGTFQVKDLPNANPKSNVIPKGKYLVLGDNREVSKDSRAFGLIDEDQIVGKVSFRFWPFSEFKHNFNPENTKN
- Procedure text: FRET-peptide cleavage by endogenous SpsB in S. aureus membranes
- Type: biochemical
- Assay conditions: activator; 50 uM compound, 0.2 mg/mL total membrane protein

Task item: Return reported SpsB activity (normalized) at 50 μM; argument: O=C(Nc1ccc(Cl)c(C(F)(F)F)c1)Nc1cccc2c1OC(F)(F)O2 [1-164]
Reply: 1.42 ± 0.08 fold of DMSO control

Task item: // query: CNC(=O)c1cc(Oc2ccc(NC(=O)Nc3ccc(Cl)c(C(F)(F)F)c3)cc2)ccn1 [SFN, sorafenib]
Reply: 1.64 ± 0.12 fold of DMSO control

Task item: Also O=C(Nc1ccc2c(c1)OCO2)Nc1ccc(Cl)c(C(F)(F)F)c1 [1-159] , if possible.
Reply: 1.40 ± 0.01 fold of DMSO control

Task item: Now consider O=C(Nc1ccc2c(c1)OC(F)(F)O2)Nc1ccc(Cl)c(C(F)(F)F)c1 [PK150] .
Reply: 2.54 ± 0.39 fold of DMSO control
